Ref: patent US8293916B2

# target.or.test.system: human mGlu 5a receptor (Homo sapiens)
# Construct: expressed in transfected cells; host or cells: EBNA cells (transient transfection); cell membrane homogenates
# experiment.description: [3H]MPEP competition binding on membranes of EBNA cells transiently transfected with human mGlu 5a receptor
pKi: −log10 of the molar value.
property.label: pKi

# chem.smiles, test.value
records = [
    ("Cc1nc(C#Cc2ccnc(Cl)c2)c(C)n1-c1ccc(C(F)(F)F)cc1", 7.85),
]

###

# target.or.test.system: human mGlu 5a receptor (Homo sapiens, UniProt P41594)
# Construct: expressed in transfected cells; host or cells: EBNA cells (transient transfection); cell membrane homogenates
# Sequence (P41594 21-1180 isoform P41594-2 limits assumed): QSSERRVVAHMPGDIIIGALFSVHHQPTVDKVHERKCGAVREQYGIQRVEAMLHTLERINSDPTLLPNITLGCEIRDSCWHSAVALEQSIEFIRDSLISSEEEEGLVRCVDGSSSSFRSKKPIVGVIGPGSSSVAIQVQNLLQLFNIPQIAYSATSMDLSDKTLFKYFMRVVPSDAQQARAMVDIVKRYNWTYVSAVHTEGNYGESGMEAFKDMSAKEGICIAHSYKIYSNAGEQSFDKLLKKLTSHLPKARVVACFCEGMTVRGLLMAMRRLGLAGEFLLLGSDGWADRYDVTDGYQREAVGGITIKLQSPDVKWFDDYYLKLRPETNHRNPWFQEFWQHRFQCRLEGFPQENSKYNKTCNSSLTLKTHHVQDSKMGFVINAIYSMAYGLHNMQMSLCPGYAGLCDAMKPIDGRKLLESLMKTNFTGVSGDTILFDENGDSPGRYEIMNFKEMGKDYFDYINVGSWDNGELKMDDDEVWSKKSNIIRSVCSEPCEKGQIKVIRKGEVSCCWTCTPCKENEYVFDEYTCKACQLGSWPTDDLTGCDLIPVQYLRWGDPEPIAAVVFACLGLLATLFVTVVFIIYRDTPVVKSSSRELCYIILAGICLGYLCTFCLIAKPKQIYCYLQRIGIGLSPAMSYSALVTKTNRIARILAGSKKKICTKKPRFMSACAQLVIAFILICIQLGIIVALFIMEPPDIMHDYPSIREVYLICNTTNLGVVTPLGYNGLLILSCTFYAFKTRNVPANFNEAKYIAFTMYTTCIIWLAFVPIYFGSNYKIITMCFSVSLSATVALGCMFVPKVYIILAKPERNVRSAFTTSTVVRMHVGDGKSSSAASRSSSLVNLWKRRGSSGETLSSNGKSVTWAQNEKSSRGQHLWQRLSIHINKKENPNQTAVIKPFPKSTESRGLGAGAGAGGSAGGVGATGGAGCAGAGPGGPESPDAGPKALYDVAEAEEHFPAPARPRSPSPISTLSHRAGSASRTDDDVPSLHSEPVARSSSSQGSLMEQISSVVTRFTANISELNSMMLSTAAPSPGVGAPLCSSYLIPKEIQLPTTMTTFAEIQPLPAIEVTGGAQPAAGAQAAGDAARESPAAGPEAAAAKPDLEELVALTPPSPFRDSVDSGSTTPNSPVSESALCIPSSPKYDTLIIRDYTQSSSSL
# experiment.description: [3H]MPEP competition binding on membranes of EBNA cells transiently transfected with human mGlu 5a receptor
# experimental.parameters: competition with [3H]MPEP (2 nM), 1 h at 4° C., pH 7.4; Ki=IC50/[1+L/Kd]
# Protocol: Cell membrane homogenates were stored at −80° C. until the day of assay where upon they were thawed and resuspended and polytronised in 15 mM Tris-HCl, 120 mM NaCl, 100 mM KCl, 25 mM CaCl2, 25 mM MgCl2 binding buffer at pH 7.4 to a final assay concentration of 20 μg protein/well. Competition experiments were performed with a fixed concentration of [^3H]MPEP (2 nM) and IC50 values of test compounds evaluated using 11 concentrations (0.3-10,000 nM). […]
pKi: −log10 of the molar value.
Collected pKi values appear next to each entry.
property.label: pKi

# molecule, test.value
measured = [
    ("Cc1c(C#Cc2ccnc(Cl)c2)nn(C)c1-c1ccc(F)cc1 [Example 26]", 8.22),
    ("Cc1nc(C#Cc2ccnc(Cl)c2)c(C(F)F)n1-c1ccc(F)cc1 [Example 27]", 7.38),
]
